- target-or-system: cathepsin D isolated from the human liver (Homo sapiens (Human), UniProt P07339)
- Sequence (P07339 65-161): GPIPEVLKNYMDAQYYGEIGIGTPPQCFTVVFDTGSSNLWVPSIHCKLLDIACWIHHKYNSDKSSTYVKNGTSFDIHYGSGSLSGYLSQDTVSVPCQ
- Sequence (P07339 169-412): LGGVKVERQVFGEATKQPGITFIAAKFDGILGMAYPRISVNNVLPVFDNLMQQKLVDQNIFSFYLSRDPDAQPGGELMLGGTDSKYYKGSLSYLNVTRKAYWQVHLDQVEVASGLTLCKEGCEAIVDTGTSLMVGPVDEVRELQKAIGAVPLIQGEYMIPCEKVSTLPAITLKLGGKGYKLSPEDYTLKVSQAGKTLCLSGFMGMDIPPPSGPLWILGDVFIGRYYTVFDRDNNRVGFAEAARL
- assay-remarks: In-vitro fluorescence assay for identification of cathepsin D inhibitors
- condition-set: cathepsin D 1.4 nM, pH 5.5; read-out: CatD assay IC50-
pIC50: −log10 of the molar value.
So basically: pIC50 at 7 or higher? That is MET. Lower than 7? That is NOT MET.

> print(dat)
                           smiles.structure                          target.or.system  class.assignment
1  CC[C@H](NC(=O)[C@H](CC(C)C)NC(=O)CC(C)C)C(=O)N[C@@H](Cc1ccccc1)[C@@H](N)CC(=O)NCCc1ccc(Cl)c(Cl)c1  cathepsin D isolated from the human liver (Homo sapiens (Human), UniProt P07339)           NOT MET
2  CC[C@H](C)[C@H](NC(=O)C[C@H](N)[C@H](Cc1ccccc1)NC(=O)[C@@H](NC(=O)[C@H](CC(C)C)NC(=O)CC(C)C)C(C)C)C(=O)N[C@H](CO)C(C)C  cathepsin D isolated from the human liver (Homo sapiens (Human), UniProt P07339)               MET
3  CC[C@H](C)[C@H](NC(=O)Cc1cccc(OC(F)(F)F)c1)C(=O)N[C@@H](Cc1ccccc1)[C@@H](N)CC(=O)N[C@H](C(=O)N[C@H](CO)C(C)C)[C@@H](C)CC  cathepsin D isolated from the human liver (Homo sapiens (Human), UniProt P07339)               MET
4  CC(C)CC(=O)N[C@@H](CC(C)C)C(=O)N[C@H](C(=O)N[C@@H](Cc1ccccc1)[C@@H](N)CC(=O)N[C@H](COc1ccc(F)cc1F)C(C)C)C(C)C  cathepsin D isolated from the human liver (Homo sapiens (Human), UniProt P07339)               MET

Please find the next compound below.
Reported pIC50 reaches at least 7 for CC(C)CC(=O)N[C@@H](CC(C)C)C(=O)N[C@H](C(=O)N[C@@H](Cc1ccccc1)[C@@H](N)CC(=O)N[C@H](COc1cccnc1)C(C)C)C(C)C ?
NOT MET

Origin of measurements: patent US9345742B2
